test: NCI Yeast Anticancer Drug Screen. Data for the CLN2oe strain (AID 163);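 also: 0% = growth of vehicle-only control cultures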; settings: S. cerevisiae CLN2oe strain, at 11.0 µM, active compounds read high
The panel holds about 79,000 compounds, 15% with a hit somewhere; the sample as a whole holds those more often.
# growth inhibition listing for each entry below
Numeric only. Scale: %

Past entries and their recorded results:
{"molecule": "Cc1cc(C)c2[s+]snc2c1", "measurement units": "%", "growth inhibition": -4}
{"molecule": "c1ccc2nc3c(nc2c1)sc1ccccc13", "measurement units": "%", "growth inhibition": 28}
{"molecule": "O=P(C(=S)Nc1c(Cl)cccc1Cl)(c1ccccc1)c1ccccc1", "measurement units": "%", "growth inhibition": 15}
{"molecule": "O=C(Cc1ccccc1)NN1C(=O)C(Cl)C1c1cc(Br)cc(Br)c1O (stereo unspecified)", "measurement units": "%", "growth inhibition": 95}
{"molecule": "O=c1cccccc1[O-].O=c1cccccc1[O-].O=c1cccccc1[O-].[Eu+3]", "measurement units": "%", "growth inhibition": 25}
{"molecule": "CC(=O)/C=C/c1cc([N+](=O)[O-])ccc1O", "measurement units": "%", "growth inhibition": 23}
{"molecule": "CC(C)OP(=O)(OC(C)C)C(=NCCO)NNc1ccc([N+](=O)[O-])cc1", "measurement units": "%", "growth inhibition": 4}
{"molecule": "c1c[nH]c(CN2CCN(Cc3ncc[nH]3)CC2)n1", "measurement units": "%", "growth inhibition": 96}

Enquiry: Could you share which growth inhibition value was measured for `COc1c2c(c3c(c1CCC(=O)O)OC(C)(C)C=C3)OC(C)(C)C=C2` ?
Return: 27

Enquiry: // lookup growth inhibition for CC(CC/C(=N/O)c1ccccc1)(CC/C(=N\O)c1ccccc1)[N+](=O)[O-] (stereo unspecified)
Return: -13

Enquiry: growth inhibition for `O=[N+]([O-])c1cc(Cl)ccc1S(=O)(=O)c1ccc(Cl)cc1[N+](=O)[O-]` ?
Return: 9

###

experiment: NCI Yeast Anticancer Drug Screen. Data for the CLN2oe strain (AID 163);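 also: 0% = growth of vehicle-only control cultures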; conditions: S. cerevisiae CLN2oe strain, at 11.0 µM, active compounds read high
Compounds without any hit were thinned out: in the full panel of roughly 79,000, 15% have a hit.
growth inhibition reference
Give your result in % as a bare value.

Use the examples below as a reference point.
{"molecule": "CC(=O)O/N=C1C=C/C(=C(/C#N)c2ccccc2)C=C/1C", "measurement units": "%", "growth inhibition": 16}
{"molecule": "CC(/C=C/c1ccc([N+](=O)[O-])o1)=N/N1CC(CN2CCOCC2)OC1=O (stereo not drawn)", "measurement units": "%", "growth inhibition": -2}

Enquiry: Find the recorded growth inhibition belonging to `O=[N+]([O-])c1ccc2[nH]c3c(-c4ccccc4)nccc3c2c1` and report it.
Return: 96

Enquiry: Report growth inhibition for `CC(C)OC(=O)NNc1c(Cl)cc(Cl)cc1Cl` please.
Return: 14

Enquiry: May I ask what growth inhibition has been recorded for `NNc1ccccc1-c1nc2ccccc2[nH]1` ?
Return: -3

Enquiry: What value of growth inhibition has been recorded for this entry: Cc1cccc(C)c1NC(=O)CCC(=O)C(C)C(=O)c1ccc(O)cc1 (stereo not drawn)
Return: -3

###

assay: NCI Yeast Anticancer Drug Screen. Data for the mlh1 strain (AID 171);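 also: 0% = growth of vehicle-treated control cultures of the same strain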; details: S. cerevisiae mlh1 strain growth inhibition; at 33.0 µM
The panel holds about 79,000 compounds, 15% with a hit somewhere; the sample as a whole holds those more often. Activity calls are given as the source filed them. No stated cut-off is given here; in the data, active means growth inhibition above about 70%; inactive means the rest.
Please state which outcome applies, choosing from active, inactive

{"molecule": "CC1=CC(=O)C=CC1=Nc1cc(Cl)c(O)c(Cl)c1", "group label": "inactive"}
{"molecule": "O=C(NCCCCN1CC2CCCC2C1)C(C1CCCCC1)C1CCCCC1 (stereo not given)", "group label": "active"}
{"molecule": "O=[N+]([O-])c1cccc2nc3ccccc3c(NCCCN3CCCCC3)c12", "group label": "active"}
{"molecule": "CC(C(=O)N1C(=O)N(C(=O)C(C)C(O)c2ccccc2)C2CCCCC21)C(O)c1ccccc1 (stereo not given)", "group label": "inactive"}
{"molecule": "O=C1C(=O)N(c2ccccc2)[C@@]2(c3ccccc3)C(=Nc3ccccc3)OC(c3ccccc3)=C12", "group label": "active"}

Enquiry: Please share the test call associated with `O=C(NCCCCN(CCCNC(=O)C(F)(F)F)Cc1ccccc1)C(F)(F)F` .
Return: inactive

Enquiry: Returns: the outcome recorded for `CNC(=O)OCc1c(COC(=O)NC)c(C)n(-c2ccc(Br)cc2)c1C` in this assay.
Return: inactive

Enquiry: Hi team, can someone confirm the assay call for `CCC(/C=C/c1ccccc1)=N\Nc1ccc(Cl)c(Cl)c1` ?
Return: inactive

Enquiry: Test call for this molecule, please: CC(CN(C)C)C(=O)/C=C/c1ccc(Cl)c(Cl)c1 (stereo not given)
Return: active

Enquiry: Hi, do you know how `O=C(Oc1ccc([N+](=O)[O-])cc1)c1ccc([N+](=O)[O-])cc1` came out in this test?
Return: inactive
